system: OCI-AML2; assay: cell viability relative to vehicle control; higher = less cytotoxic; details: 10 µM; SRSF2 genotype: wt/wt;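 also: after 48 h exposure read by CellTiter-Glo luminescence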
Counter-ions that a name gives are not always drawn.
measured endpoint: cell viability (%)
Please give a number only; it is taken to be in %.

cell viability lookup needed for COc1ccccc1OCCN [Carvedilol EP IMpurity E] , thanks. 117

New cases:
What value of cell viability has been recorded for this entry: NC(=O)c1nc(F)cnc1O [Favipiravir (T-705)] 93.2

// returns reported cell viability for input `CCOc1ccn(-c2ccc(F)cc2)c(=O)c1C(=O)Nc1ccc(Oc2ccnc(N)c2Cl)c(F)c1` 28.1

What measured cell viability goes with CO/N=C(\C(=O)N[C@@H]1C(=O)N2C(C(=O)O)=C(CSC(=O)c3ccco3)CS[C@H]12)c1csc(N)n1 [Ceftiofur hydrochloride] ? 95.4

If you can, please state the reported cell viability value of C[C@H]1[C@H](C)CC[C@]2(C(=O)O)CC[C@]3(C)C(=CC[C@@H]4[C@@]5(C)CCC(=O)C(C)(C)[C@@H]5CC[C@]43C)[C@H]12 [Ursonic acid] . 16.9

What cell viability value was documented for this compound, `CCN(C(=O)c1c(O)c2c(Cl)cccc2n(C)c1=O)c1ccccc1` ? 99.8

Given the compound CNC(=O)[C@H](Cc1c[nH]c2ccccc12)NC(=O)[C@@H](CC(=O)NO)CC(C)C [Ilomastat (GM6001, Galardin)] , what is its reported cell viability? 112

Consider the compound shown here: O=C1CCc2ccc(OCCCCN3CCN(c4cccc(Cl)c4Cl)CC3)cc2N1 [Aripiprazole (Abilify)] What is its recorded cell viability? 75.5

Fill in: cell viability of COc1cccc(C(N)=O)c1 [3-Methoxybenzamide] is ___ 115
